All figures here come from patent US10934305B2.

Listed next: entries and their corresponding IC50.
Target or system: human SHMT2 (Homo sapiens (Human), UniProt P34897)
Sequence (P34897 30-504): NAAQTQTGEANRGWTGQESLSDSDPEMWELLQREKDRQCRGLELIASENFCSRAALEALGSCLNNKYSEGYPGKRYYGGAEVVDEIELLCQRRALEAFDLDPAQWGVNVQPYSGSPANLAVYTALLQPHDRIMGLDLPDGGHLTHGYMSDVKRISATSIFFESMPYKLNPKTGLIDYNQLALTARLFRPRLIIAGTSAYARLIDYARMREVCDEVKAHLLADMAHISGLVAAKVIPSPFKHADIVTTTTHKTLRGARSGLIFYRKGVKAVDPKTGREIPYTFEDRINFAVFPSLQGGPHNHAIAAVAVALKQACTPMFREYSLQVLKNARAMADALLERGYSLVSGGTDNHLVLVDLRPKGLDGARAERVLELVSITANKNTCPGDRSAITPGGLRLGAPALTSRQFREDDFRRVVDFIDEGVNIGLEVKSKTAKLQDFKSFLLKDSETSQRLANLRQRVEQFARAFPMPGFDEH
Method description: SHMT2 in vitro enzymatic assay (coupled with MTHFD2, NADH absorption at 340 nm)
Assay type: biochemical
Condition label: SHMT2 IC50 (μM), Table 2
Readout: IC50 (µM)

Molecule | Measurement
Cc1n[nH]c2c1C(c1cc(C#CCCC(=O)O)cc(C(F)(F)F)c1)(C(C)C)C(C#N)=C(N)O2 (racemic) [1 (enantiomeric mixture)] | 0.00065
Cc1n[nH]c2c1C(c1cc(C#CCCC(=O)O)cc(C(F)(F)F)c1)(C(C)C)C(C#N)=C(N)O2 (stereo not drawn) [1 (enatiomerically active peak)] | 0.00079
